System: HL-60
Experiment: Cytotoxic activity against human HL60 cells assessed as reduction in cell viability incubated for 48 hrs by trypan blue staining based hemocytometry
Assay type: functional
Settings: HL-60, 48 h
OBSERVATION_TYPE: CC50 (µM)
Return type: number; implicit unit µM.

Let me know recorded CC50 for O=C(O[C@@H]1O[C@@H]2COC(=O)c3cc(O)c(O)c(O)c3-c3c(cc(O)c(O)c3O)C(=O)O[C@H]2[C@H](OC(=O)c2cc(O)c(O)c(O)c2)[C@H]1OC(=O)c1cc(O)c(O)c(O)c1)c1cc(O)c(Oc2c(C(=O)O[C@H]3[C@H](OC(=O)c4cc(O)c(O)c(O)c4)O[C@@H]4COC(=O)c5cc(O)c(O)c(O)c5-c5c(cc(O)c(O)c5O)C(=O)O[C@H]4[C@@H]3OC(=O)c3cc(O)c(O)c(O)c3)cc(O)c(O)c2O)c(O)c1 , thanks.
29.7

Tell me measured CC50 for O=C(O[C@@H]1O[C@@H]2COC(=O)c3cc(O)c(O)c(O)c3-c3c(cc(O)c(O)c3O)C(=O)O[C@H]2[C@H](OC(=O)c2cc(O)c(O)c(O)c2)[C@H]1O)c1cc(O)c(O)c(O)c1 please.
39.9

# return recorded CC50 for input O=C(O[C@@H]1O[C@@H]2COC(=O)c3cc(O)c(O)c(O)c3-c3c(cc(O)c(O)c3O)C(=O)O[C@H]2[C@H](OC(=O)c2cc(O)c(O)c(O)c2)[C@H]1OC(=O)c1cc(O)c(O)c(O)c1)c1cc(O)c(O)c(Oc2c(C(=O)O[C@@H]3[C@@H](OC(=O)c4cc(O)c(O)c(O)c4)[C@@H]4OC(=O)c5cc(O)c(O)c(O)c5-c5c(cc(O)c(O)c5O)C(=O)OC[C@H]4O[C@H]3O)cc(O)c(O)c2O)c1
19.5

Give the reported value of CC50 for this record: O=C(O[C@H]1[C@@H]2OC(=O)c3cc(O)c(O)c(O)c3-c3c(cc(O)c(O)c3O)C(=O)OC[C@H]2OC(O)[C@@H]1O)c1cc(O)c(O)c(O)c1 (stereo not given in full)
30.5

Look up and report measured CC50 for this entry: O=C(O[C@H]1[C@@H]2OC(=O)c3cc(O)c(O)c(O)c3-c3c(cc(O)c(O)c3O)C(=O)OC[C@H]2OC(O)[C@@H]1OC(=O)c1cc(O)c(O)c(O)c1)c1cc(O)c(O)c(O)c1 (stereo not given in full)
46.7

====

Assay: Cytotoxic activity against human HGF cells assessed as reduction in cell viability incubated for 48 hrs by MTT assay
Assay type: cell-based
OBSERVATION_TYPE: CC50 at 48 h (µM)
API: value field is a number in µM; no unit string.

Please give the documented CC50 at 48 h of O=C(O[C@@H]1O[C@@H]2COC(=O)c3cc(O)c(O)c(O)c3-c3c(cc(O)c(O)c3O)C(=O)O[C@H]2[C@H](OC(=O)c2cc(O)c(O)c(O)c2)[C@H]1OC(=O)c1cc(O)c(O)c(O)c1)c1cc(O)c(O)c(Oc2c(C(=O)O[C@@H]3[C@@H](OC(=O)c4cc(O)c(O)c(O)c4)[C@@H]4OC(=O)c5cc(O)c(O)c(O)c5-c5c(cc(O)c(O)c5O)C(=O)OC[C@H]4O[C@H]3O)cc(O)c(O)c2O)c1
92

For the compound O=C(O[C@@H]1O[C@@H]2COC(=O)c3cc(O)c(O)c(O)c3-c3c(cc(O)c(O)c3O)C(=O)O[C@H]2[C@H](OC(=O)c2cc(O)c(O)c(O)c2)[C@H]1OC(=O)c1cc(O)c(O)c(O)c1)c1cc(O)c(Oc2c(C(=O)O[C@H]3[C@H](OC(=O)c4cc(O)c(O)c(O)c4)O[C@@H]4COC(=O)c5cc(O)c(O)c(O)c5-c5c(cc(O)c(O)c5O)C(=O)O[C@H]4[C@@H]3OC(=O)c3cc(O)c(O)c(O)c3)cc(O)c(O)c2O)c(O)c1 , give its reported CC50 at 48 h.
95.3

====

Hi there, I'd appreciate the recorded CC50 at 48 h for every entry that follows.
Test: Cytotoxic activity against human HPC cells assessed as reduction in cell viability incubated for 48 hrs by MTT assay
Assay type: cell-based
Express it in µM; write the number only.

Fill in reported CC50 at 48 h for this entry: O=C(O[C@H]1[C@@H]2OC(=O)c3cc(O)c(O)c(O)c3-c3c(cc(O)c(O)c3O)C(=O)OC[C@H]2OC(O)[C@@H]1OC(=O)c1cc(O)c(O)c(O)c1)c1cc(O)c(O)c(O)c1 (stereo not given in full)
64

Supply measured CC50 at 48 h of O=C(O[C@@H]1O[C@@H]2COC(=O)c3cc(O)c(O)c(O)c3-c3c(cc(O)c(O)c3O)C(=O)O[C@H]2[C@H](OC(=O)c2cc(O)c(O)c(O)c2)[C@H]1OC(=O)c1cc(O)c(O)c(O)c1)c1cc(O)c(O)c(Oc2c(C(=O)O[C@@H]3[C@@H](OC(=O)c4cc(O)c(O)c(O)c4)[C@@H]4OC(=O)c5cc(O)c(O)c(O)c5-c5c(cc(O)c(O)c5O)C(=O)OC[C@H]4O[C@H]3O)cc(O)c(O)c2O)c1 in your reply.
86.6

Note CC50 at 48 h for the compound shown: O=C(O[C@@H]1O[C@@H]2COC(=O)c3cc(O)c(O)c(O)c3-c3c(cc(O)c(O)c3O)C(=O)O[C@H]2[C@H](OC(=O)c2cc(O)c(O)c(O)c2)[C@H]1OC(=O)c1cc(O)c(O)c(O)c1)c1cc(O)c(Oc2c(C(=O)O[C@H]3[C@H](OC(=O)c4cc(O)c(O)c(O)c4)O[C@@H]4COC(=O)c5cc(O)c(O)c(O)c5-c5c(cc(O)c(O)c5O)C(=O)O[C@H]4[C@@H]3OC(=O)c3cc(O)c(O)c(O)c3)cc(O)c(O)c2O)c(O)c1
89

====

Test: Cytotoxic activity against human HGF cells assessed as reduction in cell viability incubated for 48 hrs by MTT assay
Type: cell-based
For each record, write down the corresponding CC50 at 48 h.

Answer with reported CC50 at 48 h of O=C(O[C@@H]1O[C@@H]2COC(=O)c3cc(O)c(O)c(O)c3-c3c(cc(O)c(O)c3O)C(=O)O[C@H]2[C@H](OC(=O)c2cc(O)c(O)c(O)c2)[C@H]1O)c1cc(O)c(O)c(O)c1
> 100 µM

Using the record for O=C(O[C@H]1[C@@H]2OC(=O)c3cc(O)c(O)c(O)c3-c3c(cc(O)c(O)c3O)C(=O)OC[C@H]2OC(O)[C@@H]1O)c1cc(O)c(O)c(O)c1 (stereo partly drawn) , state its measured CC50 at 48 h.
> 100 µM

Read the entry O=C(O[C@H]1[C@@H]2OC(=O)c3cc(O)c(O)c(O)c3-c3c(cc(O)c(O)c3O)C(=O)OC[C@H]2OC(O)[C@@H]1OC(=O)c1cc(O)c(O)c(O)c1)c1cc(O)c(O)c(O)c1 (stereo partly drawn) and write its reported CC50 at 48 h.
> 100 µM
